Parameter: pIC50. Scope: all listed entries.
- target_desc: full length AKT E17K (Homo sapiens, UniProt P31749, E17K)
- Construct: host or cells: HEK-293 (ATCC CRL-1573)
- Sequence (P31749 whole entry E17K): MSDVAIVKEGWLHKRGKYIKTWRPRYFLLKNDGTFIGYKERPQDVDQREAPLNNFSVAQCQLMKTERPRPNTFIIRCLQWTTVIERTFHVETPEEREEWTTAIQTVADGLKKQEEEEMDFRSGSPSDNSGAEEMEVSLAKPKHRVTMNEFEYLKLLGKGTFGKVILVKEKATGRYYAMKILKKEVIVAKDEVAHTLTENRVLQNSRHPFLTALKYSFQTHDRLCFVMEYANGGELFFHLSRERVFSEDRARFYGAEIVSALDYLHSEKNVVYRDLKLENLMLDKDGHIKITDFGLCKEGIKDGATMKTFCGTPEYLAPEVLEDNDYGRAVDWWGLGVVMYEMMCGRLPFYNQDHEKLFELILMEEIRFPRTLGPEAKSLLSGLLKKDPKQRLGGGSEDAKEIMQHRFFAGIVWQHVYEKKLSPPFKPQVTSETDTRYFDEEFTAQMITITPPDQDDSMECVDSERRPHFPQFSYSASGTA
- experiment_notes: NanoBRET Target Engagement (TE) Assay
- Assay type: cell-based
- run_conditions: competitive tracer displacement in living cells, read-out: AKT1 E17K IC50
pIC50: −log10 of the molar value.

> print(dat)
                           structure.smiles  experimental.endpoint  experimental.result
1  N#Cc1cncc(C(=O)NC2CCN(Cc3ccc(-n4c(-c5cccnc5N)nc5ccc(-c6ccccc6)nc54)cc3)CC2)c1                  pIC50         6.22 to 7.22

Challenge: Request the reported pIC50 associated with N#Cc1cccnc1C(=O)NCc1ccc(-n2c(-c3cccnc3N)nc3cccnc32)cc1
Response given: 5.00 to 6.22

Challenge: Requested read-out: pIC50. Entry: N#Cc1nccc(N2CCN(Cc3ccc(-n4c(-c5cccnc5N)nc5ccc(C6CC6)nc54)cc3)CC2)n1
Response given: > 7.82

Challenge: Give the measured pIC50 of N#Cc1cc(N2CCN(Cc3ccc(-n4c(-c5cccnc5N)nc5ccc(N6CCCNC(=O)C6)nc54)cc3)CC2)ncn1 .
Response given: 6.22 to 7.22

Challenge: pIC50 for N#Cc1ncnc(N2CCC3(CC2)CN(Cc2ccc(-n4c(-c5cccnc5N)nc5ccc(-c6ccccc6)nc54)cc2)C3)n1 ?
Response given: > 7.82

Challenge: Name the recorded pIC50 for N#Cc1cccc(N2CCN(Cc3ccc(-n4c(-c5cccnc5N)nc5ccc(-c6ccccc6)nc54)cc3)CC2)n1 .
Response given: 6.22 to 7.22

Challenge: Please look up its pIC50: N#Cc1nccc(N2CCN(Cc3ccc(-n4c(-c5cccnc5N)nc5ccc(N6CCOCC6)nc54)cc3)CC2)n1
Response given: 6.22 to 7.22

Challenge: Would you mind telling me what pIC50 value was observed for N#Cc1cccc(-c2ccc3nc(-c4cccnc4N)n(-c4ccc(CN5CCC(Nc6ccnc(C#N)n6)CC5)cc4)c3n2)c1 ?
Response given: > 7.82

Challenge: I have this compound here, CC(=O)Nc1cccc(-c2ccc3nc(-c4cccnc4N)n(-c4ccc(CN5CCN(c6ccnc(C#N)c6)CC5)cc4)c3n2)c1 , and I need its recorded pIC50.
Response given: 7.22 to 7.82

Challenge: Recorded pIC50 for N#Cc1ccnc(N2CCN(Cc3ccc(-n4c(-c5cccnc5N)nc5cccnc54)cc3)CC2)c1 , please?
Response given: 5.00 to 6.22

Challenge: Recorded pIC50 for N#Cc1cccc(NCc2ccc(-n3c(-c4cccnc4N)nc4cccnc43)cc2)n1 , please?
Response given: 5.00 to 6.22
